# test.details: Individual serum elimination rate and half-life (linear regression per employee)
# condition.set: individual estimate, subject 3, 5 samples
Recorded measurements of Elimination rate, one per entry
// return numeric value only (unit: yearly, not printed)

# example entries with known answers
// Elimination rate lookup, key: `O=S(=O)(O)C(F)(F)C(F)(F)C(F)(F)C(F)(F)C(F)(F)C(F)(F)F` 0.5

Please answer likewise for `O=C(O)C(F)(F)C(F)(F)C(F)(F)C(F)(F)C(F)(F)C(F)(F)C(F)(F)F` 0.6

The record that follows has no Elimination rate shown yet.
// Elimination rate lookup, key: `O=S(=O)(O)C(F)(F)C(F)(F)C(F)(F)C(F)(F)C(F)(F)C(F)(F)C(F)(F)F` 0.2

---

# test.details: PFAS levels in serum samples of airport employees (LC/MS/MS)
# condition.set: first serum samples, all 26 airport employees
Recorded measurements of Relative composition of PFAS in serum, molar concentration basis, one per entry
// return numeric value only (unit: %, not printed)

// Relative composition of PFAS in serum, molar concentration basis lookup, key: `O=C(O)C(F)(F)C(F)(F)C(F)(F)C(F)(F)C(F)(F)C(F)(F)C(F)(F)F` 8.1

Please answer likewise for `O=C(O)C(F)(F)C(F)(F)C(F)(F)C(F)(F)C(F)(F)C(F)(F)F` 0.5

Please answer likewise for `O=S(=O)(O)C(F)(F)C(F)(F)C(F)(F)C(F)(F)C(F)(F)C(F)(F)C(F)(F)F` 1.1

Please answer likewise for `O=C(O)C(F)(F)C(F)(F)C(F)(F)C(F)(F)C(F)(F)F` 0.4

Please answer likewise for `O=S(=O)(O)C(F)(F)C(F)(F)C(F)(F)C(F)(F)C(F)(F)F` 7.3

The record that follows has no Relative composition of PFAS in serum, molar concentration basis shown yet.
// Relative composition of PFAS in serum, molar concentration basis lookup, key: `O=S(=O)(O)C(F)(F)C(F)(F)C(F)(F)C(F)(F)F` 0.4

---

# test.details: PFAS levels in serum samples of airport employees (LC/MS/MS)
# condition.set: 4th sampling (December 2018), count 16
quantity.measured: Serum PFAS level, 75 percentile

// Serum PFAS level, 75 percentile lookup, key: O=S(=O)(O)C(F)(F)C(F)(F)C(F)(F)C(F)(F)C(F)(F)C(F)(F)C(F)(F)C(F)(F)F [L-PFOS, linear perfluorooctane sulfonic acid] 14

Please answer likewise for O=C(O)C(F)(F)C(F)(F)C(F)(F)C(F)(F)C(F)(F)C(F)(F)C(F)(F)F [PFOA, perfluorooctanoic acid] 13

Please answer likewise for O=C(O)C(F)(F)C(F)(F)C(F)(F)C(F)(F)C(F)(F)F [PFHxA, perfluorohexanoic acid] 0.46

Please answer likewise for O=S(=O)(O)C(F)(F)C(F)(F)C(F)(F)C(F)(F)C(F)(F)F [PFPeS, perfluoropentane sulfonic acid] 11

Please answer likewise for O=S(=O)(O)C(F)(F)C(F)(F)C(F)(F)C(F)(F)C(F)(F)C(F)(F)F [PFHxS, perfluorohexane sulfonic acid] 146

Please answer likewise for O=S(=O)(O)C(F)(C(F)(F)F)C(F)(F)C(F)(F)C(F)(F)C(F)(F)C(F)(F)C(F)(F)F (stereo not drawn) [1m-PFOS, perfluoro-1-methylheptanesulfonate] 1.3

New cases:
// Serum PFAS level, 75 percentile lookup, key: O=S(=O)(O)C(F)(F)C(F)(F)C(F)(F)C(F)(F)C(F)(F)C(F)(F)C(F)(F)F [PFHpS, perfluoroheptane sulfonic acid] 2.1

Please answer likewise for O=C(O)C(F)(F)C(F)(F)C(F)(F)C(F)(F)C(F)(F)C(F)(F)F [PFHpA, perfluoroheptanoic acid] 0.72

Please answer likewise for O=S(=O)(O)C(F)(F)C(F)(F)C(F)(F)C(F)(F)F [PFBS, perfluorobutane sulfonic acid] 0.24

Data credit: paper PMC7351026
